- Tested on: SW-620
- protocolNotes: Cytotoxicity against human SW620 cells assessed as inhibition of cell growth measured after 48 hrs by MTT assay
- Type: functional, cell-based
- details: Homo sapiens, SW-620, 48 h; read-out: IC50
endpoint: IC50

Reported SW-620 IC50 for item `COC(=O)[C@]1([C@H]2OC(=O)C[C@@H]2C)CC(=O)c2c(ccc(-c3ccc4c(c3O)C(=O)C[C@@](C(=O)OC)([C@H](O)[C@@H](C)CC(=O)O)O4)c2O)O1` was > 50 µM

Reported SW-620 IC50 for item CNC(=O)c1cc(Oc2ccc(NC(=O)Nc3ccc(Cl)c(C(F)(F)F)c3)cc2)ccn1 [SORAFENIB] was 2.3 µM

Reported SW-620 IC50 for item `COC(=O)[C@@]12Oc3cc(C)c(-c4ccc5c(c4O)C(=O)C4=C(O)C[C@H](C)[C@H](O)[C@]4(C(=O)OC)O5)c(O)c3C(=O)C1=C(O)CC[C@H]2O` was > 50 µM

Reported SW-620 IC50 for item COC(=O)[C@]12Oc3ccc(-c4ccc5c(c4O)C(=O)C4=C(O)C[C@@H](C)[C@H](O)[C@@]4(C(=O)OC)O5)c(O)c3C(=O)C1=C(O)C[C@@H](C)[C@@H]2O [SECALONIC ACID A] was > 50 µM

###

- System: NCI-H1299
- protocolNotes: Cytotoxicity against human NCI-H1299 cells assessed as inhibition of cell growth at 50 uM measured after 48 hrs by MTT assay relative to control
- Assay type: functional
- Design: scale not given: the % may be the effect or the level left
endpoint: Activity (%)
State the answer as a number, implicitly in %.

# Activity (compound: `COC(=O)C[C@H](C)[C@@H](O)[C@]1(C(=O)OC)CC(=O)c2c(ccc(-c3ccc4c(c3O)C(=O)C[C@](C(=O)OC)([C@@]3(O)OC(=O)C[C@@H]3C)O4)c2O)O1` ) is 87.9

# Activity (compound: `COC(=O)[C@@]12Oc3ccc(-c4ccc(O)c5c4O[C@@](C(=O)OC)([C@H]4OC(=O)C[C@@H]4C)CC5=O)c(O)c3C(=O)C1=C(O)C[C@H](C)[C@H]2O` ) is 65.9

# Activity (compound: `COC(=O)C[C@H](C)[C@@H](O)[C@]1(C(=O)OC)CC(=O)c2c(O)ccc(-c3ccc4c(c3O)C(=O)C[C@](C(=O)OC)([C@@]3(O)OC(=O)C[C@@H]3C)O4)c2O1` ) is 70.4

# Activity (compound: `COC(=O)[C@@]12Oc3c(-c4ccc5c(c4O)C(=O)C[C@](C(=O)OC)([C@H]4OC(=O)C[C@@H]4C)O5)ccc(O)c3C(=O)C1=C(O)C[C@H](C)[C@H]2O` ) is 64.2

# Activity (compound: `COC(=O)[C@@]12Oc3c(c(O)cc(C)c3-c3ccc4c(c3O)C(=O)C3=C(O)C[C@H](C)[C@H](O)[C@]3(C(=O)OC)O4)C(=O)C1=C(O)CC[C@H]2O` ) is 81.1

# Activity (compound: `COC(=O)[C@@]12Oc3ccc(-c4ccc5c(c4O)C(=O)C[C@](C(=O)OC)([C@H]4OC(=O)C[C@@H]4C)O5)c(O)c3C(=O)C1=C(O)C[C@H](C)[C@H]2O` ) is 78.4

# Activity (compound: `COC(=O)[C@]1([C@H]2OC(=O)C[C@@H]2C)CC(=O)c2c(ccc(-c3ccc4c(c3O)C(=O)C[C@@](C(=O)OC)([C@H](O)[C@@H](C)CC(=O)O)O4)c2O)O1` ) is 76.4

# Activity (compound: `COC(=O)[C@@]12Oc3c(-c4ccc(O)c5c4O[C@]4(C(=O)O)C(=C(O)C[C@@H](C)[C@@H]4O)C5=O)ccc(O)c3C(=O)C1=C(O)C[C@H](C)[C@@H]2O` ) is 38.2

# Activity (compound: `COC(=O)[C@@]1([C@H](O)[C@@H](C)CC(=O)O)CC(=O)c2c(ccc(-c3ccc4c(c3O)C(=O)C[C@@](C(=O)OC)([C@H](O)[C@@H](C)CC(=O)O)O4)c2O)O1` ) is 64.9

# Activity (compound: `COC(=O)[C@@]1([C@H](O)[C@@H](C)CC(=O)O)CC(=O)c2c(ccc(-c3ccc(O)c4c3O[C@](C(=O)OC)([C@H](O)[C@@H](C)CC(=O)O)CC4=O)c2O)O1` ) is 78.6

# Activity (compound: `COC(=O)[C@@]12Oc3ccc(-c4ccc(O)c5c4O[C@]4(C(=O)OC)C(=C(O)C[C@H](C)[C@@H]4O)C5=O)c(O)c3C(=O)C1=C(O)C[C@H](C)[C@H]2O` ) is 64.9

# Activity (compound: `COC(=O)[C@@]12Oc3cc(C)c(-c4ccc5c(c4O)C(=O)C4=C(O)C[C@H](C)[C@H](O)[C@]4(C(=O)OC)O5)c(O)c3C(=O)C1=C(O)CC[C@H]2O` ) is 76.4

# Activity (compound: `COC(=O)[C@@]12Oc3c(-c4ccc5c(c4O)C(=O)C[C@](C(=O)OC)([C@@H]4OC(=O)C[C@@H]4C)O5)ccc(O)c3C(=O)C1=C(O)C[C@H](C)[C@H]2O` ) is 66.2

# Activity (compound: COC(=O)[C@]12Oc3ccc(-c4ccc5c(c4O)C(=O)C4=C(O)C[C@@H](C)[C@H](O)[C@@]4(C(=O)OC)O5)c(O)c3C(=O)C1=C(O)C[C@@H](C)[C@@H]2O [SECALONIC ACID A] ) is 73.6

###

- Tested on: NCI-H23
- protocolNotes: Cytotoxicity against human NCI-H23 cells […] at 50 uM measured after 48 hrs by MTT assay relative to control
- Format: functional
endpoint: Activity

# Activity (molecule: `COC(=O)[C@@]1([C@H](O)[C@@H](C)CC(=O)O)CC(=O)c2c(ccc(-c3ccc(O)c4c3O[C@](C(=O)OC)([C@H](O)[C@@H](C)CC(=O)O)CC4=O)c2O)O1` ) is 73.1%

# Activity (molecule: `COC(=O)[C@@]12Oc3cc(C)c(-c4ccc5c(c4O)C(=O)C4=C(O)C[C@H](C)[C@H](O)[C@]4(C(=O)OC)O5)c(O)c3C(=O)C1=C(O)CC[C@H]2O` ) is 5.2%

# Activity (molecule: `COC(=O)[C@@]1([C@H](O)[C@@H](C)CC(=O)O)CC(=O)c2c(ccc(-c3ccc4c(c3O)C(=O)C[C@@](C(=O)OC)([C@H](O)[C@@H](C)CC(=O)O)O4)c2O)O1` ) is 83.6%

# Activity (molecule: `COC(=O)C[C@H](C)[C@@H](O)[C@]1(C(=O)OC)CC(=O)c2c(O)ccc(-c3ccc4c(c3O)C(=O)C[C@](C(=O)OC)([C@@]3(O)OC(=O)C[C@@H]3C)O4)c2O1` ) is 86.7%

# Activity (molecule: `COC(=O)[C@@]12Oc3c(c(O)cc(C)c3-c3ccc4c(c3O)C(=O)C3=C(O)C[C@H](C)[C@H](O)[C@]3(C(=O)OC)O4)C(=O)C1=C(O)CC[C@H]2O` ) is 82.6%

# Activity (molecule: `COC(=O)[C@@]12Oc3c(-c4ccc5c(c4O)C(=O)C[C@](C(=O)OC)([C@H]4OC(=O)C[C@@H]4C)O5)ccc(O)c3C(=O)C1=C(O)C[C@H](C)[C@H]2O` ) is 82.8%

# Activity (molecule: `COC(=O)[C@]12Oc3ccc(-c4ccc5c(c4O)C(=O)C4=C(O)C[C@@H](C)[C@H](O)[C@@]4(C(=O)OC)O5)c(O)c3C(=O)C1=C(O)C[C@@H](C)[C@@H]2O` ) is 8.7%

# Activity (molecule: `COC(=O)[C@@]12Oc3c(-c4ccc(O)c5c4O[C@]4(C(=O)O)C(=C(O)C[C@@H](C)[C@@H]4O)C5=O)ccc(O)c3C(=O)C1=C(O)C[C@H](C)[C@@H]2O` ) is 6.7%

# Activity (molecule: `COC(=O)[C@@]12Oc3ccc(-c4ccc(O)c5c4O[C@]4(C(=O)OC)C(=C(O)C[C@H](C)[C@@H]4O)C5=O)c(O)c3C(=O)C1=C(O)C[C@H](C)[C@H]2O` ) is 7.2%

# Activity (molecule: `COC(=O)[C@@]12Oc3ccc(-c4ccc5c(c4O)C(=O)C[C@](C(=O)OC)([C@H]4OC(=O)C[C@@H]4C)O5)c(O)c3C(=O)C1=C(O)C[C@H](C)[C@H]2O` ) is 87.6%

# Activity (molecule: `COC(=O)C[C@H](C)[C@@H](O)[C@]1(C(=O)OC)CC(=O)c2c(ccc(-c3ccc4c(c3O)C(=O)C[C@](C(=O)OC)([C@@]3(O)OC(=O)C[C@@H]3C)O4)c2O)O1` ) is 73.6%

# Activity (molecule: `COC(=O)[C@@]12Oc3ccc(-c4ccc(O)c5c4O[C@@](C(=O)OC)([C@H]4OC(=O)C[C@@H]4C)CC5=O)c(O)c3C(=O)C1=C(O)C[C@H](C)[C@H]2O` ) is 56%

# Activity (molecule: `COC(=O)[C@@]12Oc3c(-c4ccc5c(c4O)C(=O)C[C@](C(=O)OC)([C@@H]4OC(=O)C[C@@H]4C)O5)ccc(O)c3C(=O)C1=C(O)C[C@H](C)[C@H]2O` ) is 102.6%

# Activity (molecule: `COC(=O)[C@]1([C@H]2OC(=O)C[C@@H]2C)CC(=O)c2c(ccc(-c3ccc4c(c3O)C(=O)C[C@@](C(=O)OC)([C@H](O)[C@@H](C)CC(=O)O)O4)c2O)O1` ) is 90.1%
